Cited source: patent US20210206856A1

# targetSystem: T1, mouse MAdCAM expressed on cells (mouse, UniProt Q61826 22-405)
# T1 construct: whole, on cells
# T1 sequence (looked up): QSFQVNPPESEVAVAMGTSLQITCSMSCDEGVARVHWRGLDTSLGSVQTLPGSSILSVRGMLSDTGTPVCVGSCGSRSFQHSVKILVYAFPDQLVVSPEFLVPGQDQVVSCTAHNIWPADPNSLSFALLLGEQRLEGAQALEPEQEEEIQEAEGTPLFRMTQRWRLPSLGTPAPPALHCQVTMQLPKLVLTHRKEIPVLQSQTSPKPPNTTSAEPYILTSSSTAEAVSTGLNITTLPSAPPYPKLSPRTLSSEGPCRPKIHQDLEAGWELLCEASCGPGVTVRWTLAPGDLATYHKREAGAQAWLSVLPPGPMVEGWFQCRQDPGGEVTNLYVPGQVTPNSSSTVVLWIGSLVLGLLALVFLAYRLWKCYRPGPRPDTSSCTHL
# protocolText: cell binding

{"binder": "MAdCAM Antibody Table 2 Clone 77 (antibody, human IgG1, V domains shown) VH: EVQLLESGGGLVQPGGSLRLSCAASEFTFSNAWMSWVRQAPGKGLEWVASISSTSAYIDYADSVKGRFTISRDNSKNTLYLQMNSLRAEDTAVYYCAREVVGATTFDYWGQGTLVTVSS VL: DIQMTQSPSSLSASVGDRVTITCRASQSISTWLAWYQQKPGKAPKLLIYAASSLQSGVPSRFSGSGSGTDFTLTISSLQPEDFATYYCQQANAFPPTFGQGTRLEIK", "binding result": "binds"}
{"binder": "MAdCAM Antibody Table 2 Clone 79 (antibody, human IgG1, V domains shown) VH: EVQLLESGGGLVKPGGSLRLSCAASGFTFDDYAMHWVRQAPGKGLEWVASITSSSAFIDYAASVKGRFTISRDDSKNTLYLQMNSLKTEDTAVYYCARERVDWNSYFDLWGRGTLVTVSS VL: EIVMTQSPATLSVSPGERATLSCRASQGISNSYLAWYQQKPGQAPRLLIYGASTRATGIPARFSGSGSGTEFTLTISSLQSEDFAVYYCQQYYTYPPTFGPGTKVDIK", "binding result": "binds"}
